Just for reference, patent US6878804B1 is where these values come from.

# measurement-target: platelet-derived growth factor β-receptor (PDGFR-β) (Homo sapiens)
# Sequence (P09619 33-1106, species assumed): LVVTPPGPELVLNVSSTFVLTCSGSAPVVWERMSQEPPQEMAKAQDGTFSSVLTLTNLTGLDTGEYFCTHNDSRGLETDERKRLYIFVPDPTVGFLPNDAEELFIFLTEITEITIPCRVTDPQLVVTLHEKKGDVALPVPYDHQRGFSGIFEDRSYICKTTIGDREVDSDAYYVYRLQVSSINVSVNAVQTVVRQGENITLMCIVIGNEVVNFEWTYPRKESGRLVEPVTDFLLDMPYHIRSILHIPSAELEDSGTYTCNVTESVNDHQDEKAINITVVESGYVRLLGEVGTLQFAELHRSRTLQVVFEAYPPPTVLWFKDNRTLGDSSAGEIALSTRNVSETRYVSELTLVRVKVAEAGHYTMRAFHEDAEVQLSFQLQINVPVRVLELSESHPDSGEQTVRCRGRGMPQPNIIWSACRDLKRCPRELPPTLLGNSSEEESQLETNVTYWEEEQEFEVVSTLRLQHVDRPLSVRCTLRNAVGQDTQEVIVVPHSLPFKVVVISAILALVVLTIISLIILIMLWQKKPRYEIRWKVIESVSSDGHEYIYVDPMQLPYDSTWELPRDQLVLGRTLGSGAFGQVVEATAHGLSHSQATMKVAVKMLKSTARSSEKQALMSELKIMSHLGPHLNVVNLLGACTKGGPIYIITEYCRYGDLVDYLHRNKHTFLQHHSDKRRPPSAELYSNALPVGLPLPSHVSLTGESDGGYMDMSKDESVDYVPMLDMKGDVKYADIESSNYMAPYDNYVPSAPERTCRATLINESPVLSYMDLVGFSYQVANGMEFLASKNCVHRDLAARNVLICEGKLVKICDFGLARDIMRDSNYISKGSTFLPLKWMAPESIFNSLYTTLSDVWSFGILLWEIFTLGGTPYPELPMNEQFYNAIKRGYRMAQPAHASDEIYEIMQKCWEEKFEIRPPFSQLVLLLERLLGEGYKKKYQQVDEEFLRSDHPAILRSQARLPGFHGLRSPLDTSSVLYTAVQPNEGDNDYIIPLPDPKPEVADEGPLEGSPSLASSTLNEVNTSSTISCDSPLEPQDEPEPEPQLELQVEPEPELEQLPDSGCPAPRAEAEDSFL
# protocol-details: Solid-phase assay: displacement of 125I-PDGF-BB from immobilized PDGFR-β
# Format: binding
# condition-summary: competition with 125I-PDGF-BB, 3 h at room temperature, immobilized purified PDGFR-β; read-out: Assay I50
Non-standard residues stand in square brackets, D forms with d. Residues, ends and D or L forms follow the SMILES beside them.
Known IC50 of a selection of molecules
Could you give me the number in µM? Just the number is fine.

// below: answered molecules
molecule | unit-annotation | IC50
CC(C)[C@@H]1NC(=O)[C@H](CO)NC(=O)[C@H](Cc2ccc(O)cc2)NC(=O)[C@@H]2CCCN2C(=O)[C@H]2CCCN2C(=O)[C@H](Cc2ccc(O)cc2)NC(=O)[C@H](CO)NC(=O)[C@H](CCCCN)NC(=O)[C@H](CCCCN)NC(=O)[C@H](CCCNC(=N)N)NC1=O [Example 11] (cyclo(PYSVRKKSY[dP])) | µM | 2000
CC[C@H](C)[C@@H]1NC(=O)[C@H](Cc2c[nH]c3ccccc23)NC(=O)[C@@H]2CCCN2C(=O)[C@H]2CCCN2C(=O)[C@H](Cc2c[nH]c3ccccc23)NC(=O)[C@@H]2CCCN2C(=O)[C@H](CCCCN)NC(=O)[C@H](CCCCN)NC(=O)[C@H](CCCNC(=N)N)NC(=O)[C@H](C(C)C)NC1=O [Example 13] (cyclo(PWIVRKKPW[dP])) | µM | 260

// switching to the query molecule
Suppose we examine the molecule CC(C)[C@@H]1NC(=O)[C@H](C)NC(=O)[C@H](Cc2ccc(O)cc2)NC(=O)[C@@H]2CCCN2C(=O)[C@H]2CCCN2C(=O)[C@H](Cc2ccc(O)cc2)NC(=O)[C@H](C)NC(=O)[C@H](CCCCN)NC(=O)[C@H](CCCCN)NC(=O)[C@H](CCCNC(=N)N)NC1=O [Example 10] (cyclo(PYAVRKKAY[dP])) ; what IC50 value has been reported?
2000

====

# measurement-target: UniProtKB P09619
# protocol-details: Solid-phase assay: displacement of 125I-PDGF-BB from immobilized PDGFR-β
# Format: binding
# condition-summary: competition with 125I-PDGF-BB, 3 h at room temperature, immobilized purified PDGFR-β; read-out: Assay I50
Non-standard residues stand in square brackets, D forms with d. Residues, ends and D or L forms follow the SMILES beside them.
As shown below, each of these compounds has a reported IC50 value.
Report the figure in µM without appending any unit label.

compound | experimental-value
CC[C@H](C)[C@@H]1NC(=O)[C@H](Cc2c[nH]c3ccccc23)NC(=O)[C@H](CCCCN)NC(=O)[C@H](CCCCN)NC(=O)[C@H](CCCNC(=N)N)NC(=O)[C@H](C(C)C)NC(=O)[C@H](Cc2c[nH]c3ccccc23)NC(=O)[C@H](CCC(=O)O)NC(=O)[C@@H]2CCCN2C(=O)[C@H]2CCCN2C1=O [Example 3] (cyclo(PEWVRKKWI[dP])) | 1500

Okay, next one:
Endpoint output: IC50 of CC(C)[C@@H]1NC(=O)[C@H](Cc2ccc(O)cc2)NC(=O)[C@H](C)NC(=O)[C@@H]2CCCN2C(=O)[C@H]2CCCN2C(=O)[C@H](C)NC(=O)[C@H](Cc2ccc(O)cc2)NC(=O)[C@H](CCCCN)NC(=O)[C@H](CCCCN)NC(=O)[C@H](CCCNC(=N)N)NC1=O [Example 20] (cyclo(PAYVRKKYA[dP])) . Value?
2000
